Measured values drawn from the supplement of paper PMC12494721 for this set.

Test system: Klebsiella aerogenes DSM 30053
Experiment: fold change of Putrescine concentration vs plate DMSO controls (fold change (ratio)); higher = more amine produced, active = hit call of the paper (significant change in both replicates, either direction)
Conditions: incubation time: 27 h, anaerobic, 37 °C
Where a name gives a salt, the structure may show the parent alone.
Reported fold change of Putrescine concentration values follow for various molecules
Please reply with the value in numeric form only.

Sample records with fold change of Putrescine concentration:
>>> reported("COc1cc(C(=O)NCc2ccc(OCCN(C)C)cc2)cc(OC)c1OC [Trimethobenzamide hydrochloride] (20 µM)")
0.835
>>> reported("CC(=O)Nc1c(I)c(C(=O)N[C@H]2C(O)O[C@H](CO)[C@@H](O)[C@@H]2O)c(I)c(N(C)C(C)=O)c1I (some centres undefined) [Metrizamide] (20 µM)")
0.994
>>> reported("O=C(O)CCCC[C@@H]1SC[C@@H]2NC(=O)N[C@@H]21 [Biotin] (20 µM)")
1.02

Prompt: Which value of fold change of Putrescine concentration has been reported for CS(=O)(=O)c1ccc(C2=C(c3ccccc3)C(=O)OC2)cc1 [Rofecoxib] (20 µM) in the records?
Completion: 0.99

====

Reported growth values follow for various compounds
Tested on: Escherichia coli IAI1
Assay: growth (OD595) fold change vs plate DMSO controls (fold change (ratio)); higher = more growth
Details: incubation time: 27 h, anaerobic, 37 °C
Structures can show the parent of a compound that is named as a salt.
Please reply with the value in numeric form only.

>>> reported("CC(N)CCCC(C)(C)O (stereo unspecified) [Heptaminol hydrochloride] (20 µM)")
1.1
>>> reported("CCc1oc2ccccc2c1C(=O)c1ccc(O)cc1 [Benzarone] (20 µM)")
1.1
>>> reported("O=C(O)CCCC[C@@H]1SC[C@@H]2NC(=O)N[C@@H]21 [Biotin] (20 µM)")
0.975

Prompt: Which value of growth has been reported for O=C(O)CCc1nc(-c2ccccc2)c(-c2ccccc2)o1 [Oxaprozin] (20 µM) in the records?
Completion: 1.04

Prompt: Which value of growth has been reported for CN(C)C(=O)Nc1ccc(Cl)c(Cl)c1 (20 µM) in the records?
Completion: 1.02

Prompt: Which value of growth has been reported for Nc1ccc(/N=N/c2ccccc2)c(N)n1 [Phenazopyridine hydrochloride] (20 µM) in the records?
Completion: 0.985

Prompt: Which value of growth has been reported for Cc1cc2nc3c(=O)[nH]c(=O)nc-3n(C[C@H](O)[C@H](O)[C@H](O)CO)c2cc1C [Riboflavine] (20 µM) in the records?
Completion: 0.982

Prompt: Which value of growth has been reported for CC/C(=C(\c1ccccc1)c1ccc(OCCN(C)C)cc1)c1ccccc1 [Tamoxifen citrate] (20 µM) in the records?
Completion: 1.06

Prompt: Which value of growth has been reported for CNC(=O)c1c(I)c(C(=O)NCC(=O)Nc2c(I)c(C(=O)O)c(I)c(C(=O)NCCO)c2I)c(I)c(N(C)C(C)=O)c1I [Ioxaglic acid] (20 µM) in the records?
Completion: 1.08

Prompt: Which value of growth has been reported for Clc1ccccc1CN1CCc2sccc2C1 [Ticlopidine hydrochloride] (20 µM) in the records?
Completion: 0.944

Prompt: Which value of growth has been reported for COC(=O)C1=C(C)NC(C)=C(C(=O)OCCN(C)Cc2ccccc2)C1c1cccc([N+](=O)[O-])c1 (stereo unspecified) [Nicardipine hydrochloride] (20 µM) in the records?
Completion: 0.934

Prompt: Which value of growth has been reported for CCN(CC)C(=O)Nc1ccc(OCC(O)CNC(C)(C)C)c(C(C)=O)c1 (stereo unspecified) [Celiprolol hydrochloride] (20 µM) in the records?
Completion: 0.981

Prompt: Which value of growth has been reported for O=[N+]([O-])c1ccc(O)c2ncccc12 [Nitroxoline] (20 µM) in the records?
Completion: 0.52

Prompt: Which value of growth has been reported for O=C1Nc2ccc(Cl)cc2[C@@](C#CC2CC2)(C(F)(F)F)O1 [Efavirenz] (20 µM) in the records?
Completion: 1.01

Prompt: Which value of growth has been reported for CC1(C)S[C@@H]2[C@H](NC(=O)C(C(=O)O)c3ccccc3)C(=O)N2[C@H]1C(=O)O (stereo partly specified) [Carbenicillin disodium salt] (20 µM) in the records?
Completion: 1.19

Prompt: Which value of growth has been reported for CCCc1nc2c(C)cc(-c3nc4ccccc4n3C)cc2n1Cc1ccc(-c2ccccc2C(=O)O)cc1 [Telmisartan] (20 µM) in the records?
Completion: 0.99

====

Tested on: Clostridium sporogenes DSM 1664
Assay: fold change of Tryptamine concentration vs plate DMSO controls (fold change (ratio)); higher = more amine produced, active = hit call of the paper (significant change in both replicates, either direction);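 for the amine columns active = adjusted P below 0.05 in both replicates with a change the same way and a mean fold change under 0.8 or over 1.25; inactive = the rest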
Conditions: incubation time: 27 h, anaerobic, 37 °C
Structures can show the parent of a compound that is named as a salt.
# output must be one of Yes = active, No = inactive

Reference set, count: 3
>>> assigned_label("O=C(Oc1cccc2cccnc12)c1ccccc1 [Benzoxiquine] (20 µM)")
"No"
>>> assigned_label("CC(=O)[C@H]1CC[C@H]2[C@@H]3CC=C4C[C@@H](O)CC[C@]4(C)[C@H]3CC[C@]12C [Pregnenolone] (20 µM)")
"No"
>>> assigned_label("CC1(C)S[C@@H]2[C@H](NC(=O)C(c3ccccc3)S(=O)(=O)O)C(=O)N2[C@H]1C(=O)O (stereo partly specified) [Sulbenicillin sodium salt] (20 µM)")
"Yes"

Prompt: So what was the verdict on CN(C)CCN(Cc1ccc(Cl)cc1)c1ccccn1 [Chloropyramine hydrochloride] (20 µM) in this test?
Completion: No

Prompt: So what was the verdict on CCCCc1ccc2[nH]c(NC(=O)OC)nc2c1 [Parbendazole] (20 µM) in this test?
Completion: No

Prompt: So what was the verdict on CCN(CC)C(=O)C1(c2ccccc2)CC1CN (stereo unspecified) [Milnacipran hydrochloride] (20 µM) in this test?
Completion: No

Prompt: So what was the verdict on COC(=O)C1=C(C)NC(C)=C(C(=O)OC2CCCN(Cc3ccccc3)C2)C1c1cccc([N+](=O)[O-])c1 (stereo unspecified) [Benidipine hydrochloride] (20 µM) in this test?
Completion: No

Prompt: So what was the verdict on O=C(NCCNCC(O)COc1ccc(O)cc1)N1CCOCC1 (stereo unspecified) [Xamoterol hemifumarate] (20 µM) in this test?
Completion: No

Prompt: So what was the verdict on O=C(CCCN1CC=C(n2c(=O)[nH]c3ccccc32)CC1)c1ccc(F)cc1 [Droperidol] (20 µM) in this test?
Completion: No

====

Test system: Klebsiella aerogenes DSM 30053
Experiment: fold change of Cadaverine concentration vs plate DMSO controls (fold change (ratio)); higher = more amine produced, active = hit call of the paper (significant change in both replicates, either direction)
Conditions: incubation time: 27 h, anaerobic, 37 °C
Where a name gives a salt, the structure may show the parent alone.
Reported fold change of Cadaverine concentration values follow for various compounds
Please reply with the value in numeric form only.

>>> reported("CC1(C)S[C@@H]2[C@H](NC(=O)[C@H](N)c3ccccc3)C(=O)N2[C@H]1C(=O)O [Ampicillin trihydrate] (20 µM)")
1.06
>>> reported("COc1cc2nc(N3CCN(C(=O)c4ccco4)CC3)nc(N)c2cc1OC [Prazosin hydrochloride] (20 µM)")
1
>>> reported("CC(C)NCC(O)COc1ccc(CCOCC2CC2)cc1 (configuration not stated) [Betaxolol hydrochloride] (20 µM)")
1
>>> reported("C[C@]12CC[C@@H]3c4ccc(OS(=O)(=O)O)cc4CC[C@H]3[C@@H]1CCC2=O [Estropipate piperazine salt] (20 µM)")
0.993
>>> reported("CC(C)(c1cc(Br)c(O)c(Br)c1)c1cc(Br)c(O)c(Br)c1 (20 µM)")
1.04

Prompt: Which value of fold change of Cadaverine concentration has been reported for CCc1cccc(CC)c1NC(=O)CN(CC(=O)O)CC(=O)O [Etifenin] (20 µM) in the records?
Completion: 1.02

Prompt: Which value of fold change of Cadaverine concentration has been reported for COc1ccc2cc1Oc1ccc(cc1)C[C@H]1c3c(cc4c(c3Oc3cc5c(cc3OC)CCN(C)[C@@H]5C2)OCO4)CCN1C [Cepharanthine] (20 µM) in the records?
Completion: 1

Prompt: Which value of fold change of Cadaverine concentration has been reported for CCN(CC)CCNC(=O)COc1ccc(OC)cc1 [Mefexamide hydrochloride] (20 µM) in the records?
Completion: 1.02

Prompt: Which value of fold change of Cadaverine concentration has been reported for CCN(CC)CCNC(C(=O)OCCC(C)C)c1ccccc1 (configuration not stated) [Camylofine chlorhydrate] (20 µM) in the records?
Completion: 0.988

Prompt: Which value of fold change of Cadaverine concentration has been reported for CC(C)(C)NCC(O)COc1cccc2c1CCC(=O)N2 (configuration not stated) [Carteolol hydrochloride] (20 µM) in the records?
Completion: 0.996

Prompt: Which value of fold change of Cadaverine concentration has been reported for CCN(CC)CCCC(C)Nc1c2ccc(Cl)cc2nc2ccc(OC)cc12 (configuration not stated) [Quinacrine dihydrochloride hydrate] (20 µM) in the records?
Completion: 0.996
